B1: HDV Ribozyme (parent)
chain: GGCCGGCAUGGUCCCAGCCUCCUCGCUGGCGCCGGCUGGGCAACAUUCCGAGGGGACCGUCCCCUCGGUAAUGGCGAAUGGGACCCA

# Variants of: B1
# RUN DESCRIPTION: self-cleavage, relative activity (ratio to wild type); higher = more cleavage; co-transcriptional
QUANTITY: self-cleavage
# print the numeric value only

These recorded examples may help you get a feel for the data.
G2C G5C ... 0.237
C15U G80U ... 0.526
G34C C63A ... 0.166
C48U A83C ... 0.906
G6U C64A ... 0.415

Recorded self-cleavage for G11U A43G , please?
0.0339

Recorded self-cleavage for U9C C30G , please?
0.0462

Any idea what its self-cleavage is? The variant is U9A C62G
0.939
